- target_or_test_system: GluN1/GluN2A NMDAR (Homo sapiens, UniProt Q05586+Q12879, Q05586:Y647S)
- Sequence (Q12879 23-1464, other chains not shown): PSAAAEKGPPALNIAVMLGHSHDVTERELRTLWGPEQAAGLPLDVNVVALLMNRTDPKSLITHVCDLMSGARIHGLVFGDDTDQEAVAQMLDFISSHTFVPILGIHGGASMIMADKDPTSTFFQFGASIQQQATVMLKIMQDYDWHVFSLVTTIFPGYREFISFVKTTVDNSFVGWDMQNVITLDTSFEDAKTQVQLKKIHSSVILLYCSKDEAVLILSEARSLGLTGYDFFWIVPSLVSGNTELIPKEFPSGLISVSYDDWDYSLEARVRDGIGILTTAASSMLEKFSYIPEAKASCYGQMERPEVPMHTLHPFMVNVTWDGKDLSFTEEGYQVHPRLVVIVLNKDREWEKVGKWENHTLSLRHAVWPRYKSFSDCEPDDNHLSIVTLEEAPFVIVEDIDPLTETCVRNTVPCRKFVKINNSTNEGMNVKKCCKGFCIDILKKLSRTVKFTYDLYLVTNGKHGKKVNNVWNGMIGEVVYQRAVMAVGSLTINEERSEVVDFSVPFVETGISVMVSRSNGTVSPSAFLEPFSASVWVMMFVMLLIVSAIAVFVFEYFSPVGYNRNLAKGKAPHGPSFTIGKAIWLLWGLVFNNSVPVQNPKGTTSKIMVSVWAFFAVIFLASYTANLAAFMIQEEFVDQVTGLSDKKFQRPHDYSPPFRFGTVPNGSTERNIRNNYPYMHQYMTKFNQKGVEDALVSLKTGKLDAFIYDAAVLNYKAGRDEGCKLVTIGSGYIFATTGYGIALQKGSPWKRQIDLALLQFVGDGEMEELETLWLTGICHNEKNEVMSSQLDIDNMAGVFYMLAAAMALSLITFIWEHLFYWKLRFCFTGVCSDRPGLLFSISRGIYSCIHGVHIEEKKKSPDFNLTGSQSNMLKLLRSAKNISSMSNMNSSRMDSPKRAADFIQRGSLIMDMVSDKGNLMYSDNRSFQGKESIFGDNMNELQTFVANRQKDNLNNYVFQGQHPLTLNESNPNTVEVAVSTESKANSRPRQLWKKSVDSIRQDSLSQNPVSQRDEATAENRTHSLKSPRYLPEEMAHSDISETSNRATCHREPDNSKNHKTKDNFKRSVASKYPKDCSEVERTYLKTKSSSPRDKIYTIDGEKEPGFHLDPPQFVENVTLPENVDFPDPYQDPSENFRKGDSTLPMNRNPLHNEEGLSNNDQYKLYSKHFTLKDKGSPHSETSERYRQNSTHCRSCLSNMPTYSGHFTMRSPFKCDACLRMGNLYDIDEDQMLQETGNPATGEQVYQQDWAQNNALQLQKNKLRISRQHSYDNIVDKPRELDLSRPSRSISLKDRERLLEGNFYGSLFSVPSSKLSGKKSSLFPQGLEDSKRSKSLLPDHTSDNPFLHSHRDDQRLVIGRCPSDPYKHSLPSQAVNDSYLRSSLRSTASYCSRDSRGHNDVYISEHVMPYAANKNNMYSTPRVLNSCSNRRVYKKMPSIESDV
- protocol_summary: two-electrode voltage clamp, Xenopus oocytes
experimental_endpoint: EC50
Answer format: number, then unit.

Which value of EC50 has been reported for NCC(=O)O [glycine] in the records?
36 nM
